Origin of measurements: patent US8193191B2

- target_or_system: rat GPR14 (U-II receptor) (Rattus norvegicus)
- Construct: expressed in transfected cells
- experimental_details: Rat UII Calcium Mobilization FLIPR Assay
- Type: cell-based
- applied_conditions: CHO, 5 min, 50 μM compound; agonist-induced Ca2+ mobilization (FLIPR), CHO cells with rat UII receptor; read-out: % I @ 50
reported_endpoint: inhibition at 50 µM (%)

compound	inhibition at 50 µM, %
CCOc1ccc(CN2C(=O)c3cccc(N4CCN([C@H](C)c5ccccc5)CC4)c3C2=O)cc1OC [Cpd 18]	101
COc1ccc(CN2C(=O)c3cccc(N4CCN(Cc5cccc(F)c5)CC4)c3C2=O)cc1OC [Cpd 17]	101
COc1ccc(CN2C(=O)c3cccc(N4CCN(Cc5cccc(C)c5)CC4)c3C2=O)cc1OC [Cpd 36]	82
COc1ccc(CN2C(=O)c3cccc(N4CCN([C@H](C)c5ccccc5)CC4)c3C2=O)cc1OC [Cpd 1]	99
COc1ccc(C(CCCNS(=O)(=O)c2ccc(Cl)s2)N2C(=O)c3cccc(N4CCN([C@H](C)c5ccccc5)CC4)c3C2=O)cc1OC (some centres unmarked) [Cpd 71]	37
COc1ccc(CN2C(=O)c3cccc(N[C@@H]4CCCC[C@H]4NCc4ccccc4)c3C2=O)cc1OC [Cpd 37]	71
COc1ccc(C(CCCNC(=O)OC(C)(C)C)N2C(=O)c3cccc(N4CCN([C@H](C)c5ccccc5)CC4)c3C2=O)cc1OC (some centres unmarked) [Cpd 65]	102
Cc1nn(C)c(C)c1CN1C(=O)c2cccc(N3CCN(Cc4ccccc4)CC3)c2C1=O [Cpd 23]	101

---

- target_or_system: Human UII receptor, 6D9 human rhabdomyosarcoma cells (Homo sapiens, UniProt Q9UKP6)
- Construct: 6D9: isolated by dilution subcloning of RMS13 cells, ATCC® Number: CRL-2061
- experimental_details: Human UII Calcium Mobilization Assay
- applied_conditions: average value, FLIPR TETRA, read-out: Human UII Ca^+ Mobilization Average IC50
pIC50: −log10 of the molar value.
reported_endpoint: pIC50

Previously resolved entries follow.
In [3]: df
Out[3]:
                                   compound                          target_or_system  reported_result
0  COc1ccc(C(CCCNS(=O)(=O)N(C)C)N2C(=O)c3cccc(N4CCN([C@H](C)c5ccccc5)CC4)c3C2=O)cc1OC (stereo partly shown) [Cpd 115]  Human UII receptor, 6D9 human rhabdomyosarcoma cells (Homo sapiens, UniProt Q9UKP6)             6.34
1  COc1ccc([C@@H](CCCNC(=O)c2cnoc2C)N2C(=O)c3cccc(N4CCN([C@H](C)c5ccccc5)CC4)c3C2=O)cc1OC [Cpd 144]  Human UII receptor, 6D9 human rhabdomyosarcoma cells (Homo sapiens, UniProt Q9UKP6)             6.12

a: COc1ccc(C(CCCNS(=O)(=O)c2cn(C)cn2)N2C(=O)c3cccc(N4CCN([C@H](C)c5ccccc5)CC4)c3C2=O)cc1OC (stereo partly shown) [Cpd 98]
b: CCN1CCN(c2cccc3c2C(=O)N([C@H](CCCO)c2ccc(OC)c(OC)c2)C3=O)CC1 [Cpd 206]
INPUT: Between a and b , which one shows the smaller pIC50 number? # answer = label of selected item
OUTPUT: b
(b: 6.17, a: 6.46)

---

- target_or_system: rat GPR14 (U-II receptor) (Rattus norvegicus)
- Construct: expressed in transfected cells
- Sequence (P49684 1-386): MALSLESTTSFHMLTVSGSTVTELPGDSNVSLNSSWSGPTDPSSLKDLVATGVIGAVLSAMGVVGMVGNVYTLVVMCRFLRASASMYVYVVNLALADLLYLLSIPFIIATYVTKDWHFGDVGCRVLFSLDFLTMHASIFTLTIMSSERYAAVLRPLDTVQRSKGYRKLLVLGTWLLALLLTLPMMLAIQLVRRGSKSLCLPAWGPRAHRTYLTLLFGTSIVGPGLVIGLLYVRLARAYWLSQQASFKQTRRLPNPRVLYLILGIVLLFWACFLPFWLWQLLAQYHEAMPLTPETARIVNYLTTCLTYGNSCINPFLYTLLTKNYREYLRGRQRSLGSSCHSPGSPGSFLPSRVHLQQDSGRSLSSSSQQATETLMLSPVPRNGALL
- experimental_details: Rat UII Calcium Mobilization FLIPR Assay
- Type: cell-based
- applied_conditions: Inhibition of Acetyl-cyclic[Cys-Phe-Trp-Lys-(2-Nal)-Cys]-NH2 induced Ca2+ mobilization (FLIPR) in CHO cells transfected with rat UII receptor; read-out: IC50
reported_endpoint: IC50 (µM)

                                   molecule                          target_or_system  reported_result
0  COc1ccc([C@H](C)N2C(=O)c3cccc(N4CCN([C@H](C)c5ccccc5)CC4)c3C2=O)cc1OC  rat GPR14 (U-II receptor) (Rattus norvegicus)             0.13
1  COc1ccc(CN2C(=O)c3cccc(N4CCN(C(C)c5ccccc5)CC4)c3C2=O)cc1OC (stereo not shown)  rat GPR14 (U-II receptor) (Rattus norvegicus)             0.16
2  COc1ccc(CN2C(=O)c3cccc(C4=CCN(Cc5ccccc5)CC4)c3C2=O)cc1OC  rat GPR14 (U-II receptor) (Rattus norvegicus)              1.5
3  COc1ccc(CN2C(=O)c3cccc(N4CCN(Cc5ccc(F)cc5F)CC4)c3C2=O)cc1OC  rat GPR14 (U-II receptor) (Rattus norvegicus)              2.1
4  COc1ccc(CN2C(=O)c3cccc(N4CCN(Cc5ccccc5)CC4)c3C2=O)cc1OC  rat GPR14 (U-II receptor) (Rattus norvegicus)            0.151

P: COc1ccc(CN2C(=O)c3cccc(N4C[C@@H](C)N(C(C)c5ccccc5)[C@@H](C)C4)c3C2=O)cc1OC (stereo partly shown)
Q: COc1ccc(CN2C(=O)c3cccc(N4CCN(Cc5ccc(Cl)cc5)CC4)c3C2=O)cc1OC
R: COc1ccc(CN2C(=O)c3cccc(N4CCN([C@@H](C)c5ccccc5)CC4)c3C2=O)cc1OC
INPUT: Thanks in advance: please rank these 3 entries by IC50, highest to lowest. A complete answer lists every label in the requested sequence.
OUTPUT: Q, P, R

A: O=C1c2cccc(N3CCN(Cc4ccccc4)CC3)c2C(=O)N1CCCn1ccnc1
B: COc1ccc(CN2CCN(c3cccc4c3C(=O)N(Cc3ccc(OC)c(OC)c3)C4=O)CC2)cc1OC
INPUT: Between A and B , which one shows the smaller IC50 number? # answer = label of selected item
OUTPUT: A
(A: 15 µM, B: 25 µM)

---

- target_or_system: UniProt:Q9UKP6
- Sequence (Q9UKP6 1-389): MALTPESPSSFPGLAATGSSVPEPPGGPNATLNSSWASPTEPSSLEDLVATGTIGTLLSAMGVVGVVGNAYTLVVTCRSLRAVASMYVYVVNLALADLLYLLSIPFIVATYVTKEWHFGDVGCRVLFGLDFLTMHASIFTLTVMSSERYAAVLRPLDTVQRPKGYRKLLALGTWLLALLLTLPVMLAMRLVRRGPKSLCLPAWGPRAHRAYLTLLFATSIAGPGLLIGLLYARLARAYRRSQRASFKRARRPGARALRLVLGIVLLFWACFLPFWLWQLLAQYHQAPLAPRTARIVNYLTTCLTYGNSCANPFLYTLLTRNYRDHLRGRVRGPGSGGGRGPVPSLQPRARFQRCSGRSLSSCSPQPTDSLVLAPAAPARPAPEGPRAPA
- experimental_details: Human Radioligand Binding Assay ((^125I)-U-II binding to human skeletal muscle myoblasts)
reported_endpoint: Ki (nM)

molecule	target_or_system	Ki / nM
CCN1CCN(c2cccc3c2C(=O)N([C@H](CCCOCc2ccccc2)c2ccc(OC)c(OC)c2)C3=O)CC1 [Cpd 201]	UniProt:Q9UKP6	210
COc1ccc([C@@H](CCCNS(=O)(=O)c2cccs2)N2C(=O)c3cccc(N4CCN(Cc5ccoc5)CC4)c3C2=O)cc1OC [Cpd 170]	UniProt:Q9UKP6	31

1: CCCC(=O)NCCC[C@H](c1ccc(OC)c(OC)c1)N1C(=O)c2cccc(N3CCN([C@H](C)c4ccccc4)CC3)c2C1=O [Cpd 176]
2: COc1ccc(CN2C(=O)c3cccc(N4CCN(Cc5ccsc5)CC4)c3C2=O)cc1OC [Cpd 83]
INPUT: Between 1 and 2 , which one shows the smaller Ki number? # answer = label of selected item
OUTPUT: 1
(1: 24 nM, 2: 1600 nM)

a: CCN1CCN(c2cccc3c2C(=O)N(C(CC2CCN(S(=O)(=O)c4cccs4)CC2)c2ccc(OC)c(OC)c2)C3=O)CC1 (stereo not shown) [Cpd 234]
b: COc1ccc([C@@H](CCNC(=O)OCc2ccccc2)N2C(=O)c3cccc(N4CCN([C@H](C)c5ccccc5)CC4)c3C2=O)cc1OC [Cpd 216]
c: COC(=O)c1sccc1S(=O)(=O)NCCCC(c1ccc(OC)c(OC)c1)N1C(=O)c2cccc(N3CCN([C@H](C)c4ccccc4)CC3)c2C1=O (stereo partly shown) [Cpd 94]
d: COc1ccc(C(CCCNS(=O)(=O)c2c(Cl)nc3sccn23)N2C(=O)c3cccc(N4CCN([C@H](C)c5ccccc5)CC4)c3C2=O)cc1OC (stereo partly shown) [Cpd 93]
INPUT: Thanks in advance: please rank these 4 entries by Ki, highest to lowest. A complete answer lists every label in the requested sequence.
OUTPUT: d, a, b, c
